We begin with a simple list: items and their reported IC50.
System: 5-LO product formation in intact neutrophils (PMNL)
Assay: Determination of 5-LO products in neutrophils
Type: cell-based
Conditions: Homo sapiens, 2.5 µM A23187, n = 3, read-out: 5-LO product formation on PMNL, IC50 value ± SEM, stimulus: A23187
Method: Figure S3. Concentration-response curves for inhibition of 5-LO product formation in neutrophils. Cells were pre-incubated with compounds 3, 6, 7 and 9 or 0.1% DMSO over 10 min at 37 °C, and then stimuli were added. […] Data are expressed as percentage of uninhibited control (100%), means, S.E.M., n = 3. […]
Express it in µM; write the number only.

Recorded results for 3 molecules are shown here.
{"Query Smiles": "O=C(Nc1nnc(-c2ccc(-c3cccc(O)c3)cc2)s1)c1ccccc1Br", "Units": "µM", "IC50": 4.9}
{"Query Smiles": "Nc1ccccc1-c1ccc(-c2nnc(NC(=O)c3c(Cl)ccnc3Cl)s2)cc1", "Units": "µM", "IC50": 2.1}
{"Query Smiles": "Nc1ccccc1-c1ccc(-c2nnc(NC(=O)c3ccccc3Br)s2)cc1", "Units": "µM", "IC50": 4.2}

Now consider a different molecule.
-- ask // query IC50 value for entry Cc1cc(C(=O)Nc2nnc(-c3ccc(-c4ccccc4N)cc3)s2)cc(Cl)n1
-- reply 4.8

----------
system: 5-LO product formation in intact neutrophils (PMNL); test: Determination of 5-LO products in neutrophils; format: cell-based; conditions: Homo sapiens, 2.5 µM A23187 plus 20 μM arachidonic acid, n = 3, read-out: 5-LO product formation on PMNL, IC50 value ± SEM, stimulus: A23187 + AA
Collected pIC50 values appear next to each entry.
Keep it numeric: pIC50 is minus log10 of the concentration in mol/L.

Here are 3 compounds together with their reported answers.
{"Query Smiles": "O=C(Nc1nnc(-c2ccc(-c3cccc(O)c3)cc2)s1)c1ccccc1Br", "Reported Measurement": 5.28}
{"Query Smiles": "Nc1ccccc1-c1ccc(-c2nnc(NC(=O)c3c(Cl)ccnc3Cl)s2)cc1", "Reported Measurement": 5.38}
{"Query Smiles": "Nc1ccccc1-c1ccc(-c2nnc(NC(=O)c3ccccc3Br)s2)cc1", "Reported Measurement": 5.64}

Kindly consider the entry below.
-- ask Could you share which pIC50 value was measured for Cc1cc(C(=O)Nc2nnc(-c3ccc(-c4ccccc4N)cc3)s2)cc(Cl)n1 ?
-- reply 5.16

----------
molecular target: UniProtKB P05979; assay: Cell-free COXs activity assay, COX-1; type: biochemical, ovine; conditions: percentage of uninhibited control (100%), n = 3, n.i.: no inhibitory activity observed, read-out: COX-1 residual activity (%)
Sequence (P05979 25-600): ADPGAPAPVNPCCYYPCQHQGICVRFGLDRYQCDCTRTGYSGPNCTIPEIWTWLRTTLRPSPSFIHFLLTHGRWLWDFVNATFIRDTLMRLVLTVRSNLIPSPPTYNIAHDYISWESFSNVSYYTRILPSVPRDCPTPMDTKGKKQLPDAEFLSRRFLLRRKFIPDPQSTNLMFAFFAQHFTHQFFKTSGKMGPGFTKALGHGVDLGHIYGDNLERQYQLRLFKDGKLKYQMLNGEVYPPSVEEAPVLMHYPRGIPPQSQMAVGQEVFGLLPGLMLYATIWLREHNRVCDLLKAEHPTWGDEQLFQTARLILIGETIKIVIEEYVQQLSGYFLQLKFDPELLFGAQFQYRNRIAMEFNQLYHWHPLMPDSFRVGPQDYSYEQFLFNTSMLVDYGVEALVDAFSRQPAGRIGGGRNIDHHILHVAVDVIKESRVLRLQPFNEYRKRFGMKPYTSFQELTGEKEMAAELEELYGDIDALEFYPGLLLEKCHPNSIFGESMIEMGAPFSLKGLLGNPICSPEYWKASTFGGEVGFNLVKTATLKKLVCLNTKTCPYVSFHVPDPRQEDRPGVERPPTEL
Readout Type: remaining activity at 10 µM
Your answer should be a number followed by the unit of measure.

-- ask Give the measured remaining activity at 10 µM of Nc1ccccc1-c1ccc(-c2nnc(NC(=O)c3ccccc3Br)s2)cc1 [compound 7] .
-- reply 98.1%

-- ask Same read-out for Nc1ccccc1-c1ccc(-c2nnc(NC(=O)c3c(Cl)ccnc3Cl)s2)cc1 [compound 9] ?
-- reply 107%

-- ask Would you mind doing O=C(Nc1nnc(-c2ccc(-c3cccc(O)c3)cc2)s1)c1ccccc1Br [compound 3] as well?
-- reply 104%

-- ask Would you kindly repeat that for Cc1cc(C(=O)Nc2nnc(-c3ccc(-c4ccccc4N)cc3)s2)cc(Cl)n1 [compound 6] ?
-- reply 82.3%
